FYI, the data here is from paper PMC5216056.

# TARGET_ENTITY: hCB1R (Homo sapiens, UniProt P21554)
# Construct: host or cells: CHO
# Sequence (P21554 whole entry): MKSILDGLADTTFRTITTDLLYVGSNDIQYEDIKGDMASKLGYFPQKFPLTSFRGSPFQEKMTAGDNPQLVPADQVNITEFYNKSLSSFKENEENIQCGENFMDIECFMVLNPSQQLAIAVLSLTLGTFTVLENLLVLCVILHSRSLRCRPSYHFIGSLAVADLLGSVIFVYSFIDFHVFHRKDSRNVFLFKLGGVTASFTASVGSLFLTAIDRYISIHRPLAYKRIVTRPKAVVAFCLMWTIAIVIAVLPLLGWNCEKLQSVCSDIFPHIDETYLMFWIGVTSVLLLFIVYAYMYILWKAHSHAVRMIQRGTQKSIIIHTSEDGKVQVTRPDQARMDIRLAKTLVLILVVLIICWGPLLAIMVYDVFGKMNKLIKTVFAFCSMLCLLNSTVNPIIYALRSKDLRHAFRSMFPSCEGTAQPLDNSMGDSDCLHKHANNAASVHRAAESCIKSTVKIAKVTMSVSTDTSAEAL
# PROTOCOL_DESCRIPTION: cell-based
Kindly state pEC50 ± SEM cAMP hCB1R for each of the entries shown.

Which value of pEC50 ± SEM cAMP hCB1R has been reported for CCCCCCC(C)(C)c1cc(OC)c(C2=C[C@H]3CC[C@]2(CO)C3(C)C)c(OC)c1 in the records?
< 5

Which value of pEC50 ± SEM cAMP hCB1R has been reported for Cc1ccc2c(c1)Cc1c(C(=O)NN3CCCCC3)nn(-c3ccc(Cl)cc3Cl)c1-2 in the records?
< 5

Which value of pEC50 ± SEM cAMP hCB1R has been reported for CN1CCCC[C@H]1Cn1cc(C(=O)c2cc([N+](=O)[O-])ccc2I)c2ccccc21 [(S)-AM1241] in the records?
< 5

Which value of pEC50 ± SEM cAMP hCB1R has been reported for CN1CCCC[C@@H]1Cn1cc(C(=O)c2cc([N+](=O)[O-])ccc2I)c2ccccc21 [(R)-AM1241] in the records?
6.17 ± 0.12

Which value of pEC50 ± SEM cAMP hCB1R has been reported for CN1CCCCC1Cn1cc(C(=O)c2cc([N+](=O)[O-])ccc2I)c2ccccc21 (racemic) [(rac)-AM1241] in the records?
< 5

Which value of pEC50 ± SEM cAMP hCB1R has been reported for CCCC(C)(C)c1ccc2c(c1)OC(C)(C)[C@@H]1CC=C(C)C[C@@H]21 in the records?
< 5

====

Kindly state β-AR-GIRK bias factor (BF) for each of the entries shown.
# TARGET_ENTITY: UniProt:P34972
# Set-up: expressed in transfected cells; host or cells: Flp-In-293 (Invitrogen #R750-07), pcDNA5/FRT
# CONDITIONS_USED: hCB2R

Identify the measured β-AR-GIRK bias factor (BF) of CN1CCCC[C@H]1Cn1cc(C(=O)c2cc([N+](=O)[O-])ccc2I)c2ccccc21 [(S)-AM1241] for UniProt:P34972.
0.43

Identify the measured β-AR-GIRK bias factor (BF) of CCCCCCC(C)(C)c1cc(OC)c([C@@H]2C=C(CO)[C@@H]3C[C@H]2C3(C)C)c(OC)c1 [HU308] for UniProt:P34972.
6.37

Identify the measured β-AR-GIRK bias factor (BF) of CN1CCCCC1Cn1cc(C(=O)c2cc([N+](=O)[O-])ccc2I)c2ccccc21 (racemic) [(rac)-AM1241] for UniProt:P34972.
62.37

Identify the measured β-AR-GIRK bias factor (BF) of CCCCC/C=C\C/C=C\C/C=C\C/C=C\CCCC(=O)OC(CO)CO [2-AG, 2-arachidonoyl glycerol] for UniProt:P34972.
0.07

Identify the measured β-AR-GIRK bias factor (BF) of CCCCCCC(C)(C)c1cc(OC)c(C2=C[C@H]3CC[C@]2(CO)C3(C)C)c(OC)c1 [HU910] for UniProt:P34972.
15.07

Identify the measured β-AR-GIRK bias factor (BF) of CCCCC/C=C\C/C=C\C/C=C\C/C=C\CCCC(=O)NCCO [Anandamide, N-arachidonoylethanolamine] for UniProt:P34972.
2.37

Identify the measured β-AR-GIRK bias factor (BF) of CN1CCCC[C@@H]1Cn1cc(C(=O)c2cc([N+](=O)[O-])ccc2I)c2ccccc21 [(R)-AM1241] for UniProt:P34972.
12.13

====

Kindly state GTPγS-cAMP bias factor (BF) for each of the entries shown.
# TARGET_ENTITY: hCB2R (Homo sapiens, UniProt P34972)
# Sequence (P34972 whole entry): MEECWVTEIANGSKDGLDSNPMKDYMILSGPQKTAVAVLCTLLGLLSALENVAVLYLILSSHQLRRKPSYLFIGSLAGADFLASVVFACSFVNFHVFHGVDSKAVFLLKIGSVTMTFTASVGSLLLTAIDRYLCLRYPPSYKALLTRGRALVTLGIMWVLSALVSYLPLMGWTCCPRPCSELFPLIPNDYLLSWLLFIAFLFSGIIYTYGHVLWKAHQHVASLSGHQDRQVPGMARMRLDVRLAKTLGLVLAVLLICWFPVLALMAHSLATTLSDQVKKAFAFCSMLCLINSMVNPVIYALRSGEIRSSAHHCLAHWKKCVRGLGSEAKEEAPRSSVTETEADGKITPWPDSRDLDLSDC
# Parameters: expressed in transfected cells; host or cells: Flp-In-293 (Invitrogen #R750-07), pcDNA5/FRT
# CONDITIONS_USED: hCB2R
Respond numerically, and do not add a unit to the figure.

Identify the measured GTPγS-cAMP bias factor (BF) of CCCCCCC(C)(C)c1cc(OC)c(C2=C[C@H]3CC[C@]2(CO)C3(C)C)c(OC)c1 [HU910] for hCB2R (Homo sapiens, UniProt P34972).
7.73

Identify the measured GTPγS-cAMP bias factor (BF) of CCCCC/C=C\C/C=C\C/C=C\C/C=C\CCCC(=O)OC(CO)CO [2-AG, 2-arachidonoyl glycerol] for hCB2R (Homo sapiens, UniProt P34972).
1.16

Identify the measured GTPγS-cAMP bias factor (BF) of CCCCCCC(C)(C)c1cc(OC)c([C@@H]2C=C(CO)[C@@H]3C[C@H]2C3(C)C)c(OC)c1 [HU308] for hCB2R (Homo sapiens, UniProt P34972).
7.78

Identify the measured GTPγS-cAMP bias factor (BF) of CCCCC/C=C\C/C=C\C/C=C\C/C=C\CCCC(=O)NCCO [Anandamide, N-arachidonoylethanolamine] for hCB2R (Homo sapiens, UniProt P34972).
10.26

====

# TARGET_ENTITY: Rat recombinant TRPV2 (Rattus norvegicus, UniProt Q9WUD2)
# Sequence (Q9WUD2 1-761): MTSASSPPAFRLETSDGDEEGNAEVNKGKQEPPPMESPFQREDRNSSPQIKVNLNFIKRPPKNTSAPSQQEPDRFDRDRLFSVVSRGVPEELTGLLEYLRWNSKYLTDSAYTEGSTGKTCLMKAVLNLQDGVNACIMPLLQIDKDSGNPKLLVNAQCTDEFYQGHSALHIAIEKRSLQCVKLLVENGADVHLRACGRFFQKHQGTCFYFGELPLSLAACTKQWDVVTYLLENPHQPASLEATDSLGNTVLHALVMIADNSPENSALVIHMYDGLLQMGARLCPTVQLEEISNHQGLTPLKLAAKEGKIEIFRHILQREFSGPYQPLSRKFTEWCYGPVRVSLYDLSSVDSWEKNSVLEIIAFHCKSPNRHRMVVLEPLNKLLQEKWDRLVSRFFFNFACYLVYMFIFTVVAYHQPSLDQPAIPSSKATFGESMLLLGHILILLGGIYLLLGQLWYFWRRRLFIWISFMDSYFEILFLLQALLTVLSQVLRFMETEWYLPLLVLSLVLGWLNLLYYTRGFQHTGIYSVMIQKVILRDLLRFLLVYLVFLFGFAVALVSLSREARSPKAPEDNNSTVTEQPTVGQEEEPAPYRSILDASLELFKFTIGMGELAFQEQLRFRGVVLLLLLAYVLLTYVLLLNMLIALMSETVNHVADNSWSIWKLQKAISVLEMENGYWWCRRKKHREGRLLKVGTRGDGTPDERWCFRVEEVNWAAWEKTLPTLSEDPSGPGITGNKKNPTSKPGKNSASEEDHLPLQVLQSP
# PROTOCOL_DESCRIPTION: cell-based
# CONDITIONS_USED: read-out: TRPV2 Potency EC50
READOUT: EC50
Could you give the number and then its unit, please?

Which value of EC50 has been reported for CN1CCCC[C@@H]1Cn1cc(C(=O)c2cc([N+](=O)[O-])ccc2I)c2ccccc21 [(R)-AM1241] in the records?
12 µM

Which value of EC50 has been reported for CN1CCCC[C@H]1Cn1cc(C(=O)c2cc([N+](=O)[O-])ccc2I)c2ccccc21 [(S)-AM1241] in the records?
5 µM

Which value of EC50 has been reported for Cc1c(C(=O)c2cccc3ccccc23)c2cccc3c2n1[C@H](CN1CCOCC1)CO3 in the records?
14.8 µM

====

# TARGET_ENTITY: UniProt:P34972
# Design: expressed in transfected cells; host or cells: Flp-In-293 (Invitrogen #R750-07), pcDNA5/FRT
# CONDITIONS_USED: hCB2R
READOUT: β-AR-GTPγS ΔΔlogR

Which value of β-AR-GTPγS ΔΔlogR has been reported for CN1CCCC[C@H]1Cn1cc(C(=O)c2cc([N+](=O)[O-])ccc2I)c2ccccc21 [(S)-AM1241] in the records?
-1.16 ± 0.57

Which value of β-AR-GTPγS ΔΔlogR has been reported for CCCCC/C=C\C/C=C\C/C=C\C/C=C\CCCC(=O)NCCO [Anandamide, N-arachidonoylethanolamine] in the records?
0.79 ± 0.62

Which value of β-AR-GTPγS ΔΔlogR has been reported for CN1CCCC[C@@H]1Cn1cc(C(=O)c2cc([N+](=O)[O-])ccc2I)c2ccccc21 [(R)-AM1241] in the records?
-0.31 ± 0.54

Which value of β-AR-GTPγS ΔΔlogR has been reported for CCCCCCC(C)(C)c1cc(OC)c([C@@H]2C=C(CO)[C@@H]3C[C@H]2C3(C)C)c(OC)c1 in the records?
0.55 ± 0.32

Which value of β-AR-GTPγS ΔΔlogR has been reported for CN1CCCCC1Cn1cc(C(=O)c2cc([N+](=O)[O-])ccc2I)c2ccccc21 (racemic) [(rac)-AM1241] in the records?
1.83 ± 0.61

Which value of β-AR-GTPγS ΔΔlogR has been reported for CCCCCCC(C)(C)c1cc(OC)c(C2=C[C@H]3CC[C@]2(CO)C3(C)C)c(OC)c1 in the records?
0.67 ± 0.32

Which value of β-AR-GTPγS ΔΔlogR has been reported for CCCCC/C=C\C/C=C\C/C=C\C/C=C\CCCC(=O)OC(CO)CO in the records?
1.05 ± 0.45
